The origin of these recorded values is ChEMBL document CHEMBL1141482.

Ratio Ki overview
Organism: Homo sapiens
assay.explanation: Selectivity for human A2B receptor over human A3 receptor
Hey, just send me the number, nothing else.

CCn1c(=O)[nH]c2nc(-c3cnn(Cc4cccc(F)c4)c3)[nH]c2c1=O
30
CC(C)Cn1c(=O)[nH]c2nc(-c3cnn(Cc4cccc(F)c4)c3)[nH]c2c1=O
70
O=c1[nH]c2nc(-c3cnn(Cc4cccc(C(F)(F)F)c4)c3)[nH]c2c(=O)n1CC1CC1
300
CCCCn1c(=O)[nH]c2nc(-c3cnn(Cc4ccccc4)c3)[nH]c2c1=O
3

Challenge: Consider the compound shown here: CC(C)Cn1c(=O)[nH]c2nc(-c3cnn(Cc4ccccc4)c3)[nH]c2c1=O What is its recorded Ratio Ki?
Response given: 90

Challenge: Look at this compound and give its reported Ratio Ki. CCCn1c(=O)[nH]c2nc(-c3cnn(Cc4ccccc4)c3)[nH]c2c1=O
Response given: 10
